Where do these numbers come from? They come from patent US20240262842A1.

Molecular target: interaction between GMPPNP-bound recombinant K-Ras4B G12C mutant protein and cRAF RAS-binding domain (cRAF-RBD) (Homo sapiens, UniProt P01116, G12C)
Construct: His-tag (N)
Sequence (P01116 with tags, fused parts or gaps isoform P01116-2 G12C): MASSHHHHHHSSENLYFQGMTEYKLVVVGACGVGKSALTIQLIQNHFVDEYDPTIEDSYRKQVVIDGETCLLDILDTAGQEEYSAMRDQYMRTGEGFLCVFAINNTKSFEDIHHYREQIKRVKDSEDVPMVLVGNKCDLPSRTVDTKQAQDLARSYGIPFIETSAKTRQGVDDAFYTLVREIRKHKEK
Assay: Inhibitory activity on interaction between KRAS G12C and cRAF (Alpha technology)
Conditions: GMPPNP-bound KRAS G12C incubated with compound 25° C. 1 hour; Table 2; read-out: IC50
quantity.kind: log10 IC50 (log10 of the value in nM)
Scale: log10; quantity: IC50; unit before log: nM

Task: What log10 IC50 value was documented for this compound, CO[C@H]1CC[C@H](NC/C=C/C(=O)Nc2c(F)cc(C(=O)c3cc4c5c(cccn35)-c3c(C(F)(F)F)cc5c(nc(C)n5C)c3OC(C)C4)cc2F)CC1 (some centres unmarked) [Example 42] ?
Result: 1.26

Task: Value lookup for log10 IC50; key = Cc1nc2c3c(c(C(F)(F)F)cc2n1C)-c1cccn2c(C(=O)c4cc(F)c(NC(=O)/C=C/CNC5(C)CCOC5)c(F)c4)cc(c12)CCO3 (centres unmarked)
Result: 1.00

Task: Value lookup for log10 IC50; key = Cc1nc2c3c(c(C(F)(F)F)cc2n1C)-c1cccn2c(C(=O)c4cc(F)c(NC(=O)/C=C/CNC5(C)COC5)c(F)c4)cc(c12)CCO3 (single isomer, unassigned) [Example 31-1]
Result: 1.04

Task: Fill blank: measured log10 IC50 of the compound CO[C@H]1CC[C@H](NC/C=C/C(=O)Nc2c(F)cc(C(=O)c3nn4c5c(cccc35)-c3c(C(F)(F)F)cc5c(nc(C)n5C)c3OCC4)cc2F)CC1 is ____.
Result: 2.15

Task: Form field: reported log10 IC50 of CO[C@H]1CC[C@H](NC/C=C/C(=O)Nc2ccc(C(=O)c3cc4c5c(cccn35)-c3c(C(F)(F)F)cc5c(nc(C)n5C)c3OCC4)cc2)CC1
Result: 1.60

* * *

Biological target: interaction between GMPPNP-bound recombinant K-Ras4B G12C mutant protein and cRAF RAS-binding domain (cRAF-RBD) (Homo sapiens, UniProt P01116, G12C)
Construct: His-tag (N)
Assay: Inhibitory activity on interaction between KRAS G12C and cRAF (Alpha technology)
Settings: IC50, GMPPNP-bound KRAS G12C incubated with compound 25° C. 1 hour; Table 2
Response field label takes 1 when IC50 is strictly below 50 nM and 0 in all other cases.

Task: Lab note: confirm whether the reported IC50 for this compound is below 50 nM, equality not counting. compound: CO[C@H]1CC[C@H](NC/C=C/C(=O)Nc2c(F)cc(C(=O)c3cn4c5c(cccc35)-c3c(ccc(C#N)c3Cl)OCC4)cc2F)CC1
Result: 0

Task: Hello, I'm reviewing records and need to know if IC50 of CO[C@H]1CC[C@H](NC/C=C/C(=O)Nc2c(F)cc(C(=O)c3cn4c5c(cccc35)-c3c(C)cc5c(nc(C)n5C)c3OCC3(CC3)C4)cc2F)CC1 (single isomer, unassigned) [Example 21-2] is below 50 nM. Could you check?
Result: 0

Task: Strictly below 50 nM: is that where IC50 of CO[C@H]1CC[C@H](NC/C=C/C(=O)Nc2c(F)cc(C(=O)c3cn4c5c(cccc35)-c3c(C)cc5c(nc(C)n5C)c3OCCC4)cc2F)CC1 (single isomer, unassigned) [Example 15-2] sits?
Result: 1

Task: Dear colleague, could you confirm whether IC50 of COc1cccc2c1-c1cccc3c(C(=O)c4cc(F)c(NC(=O)/C=C/CN[C@H]5CC[C@H](OC)CC5)c(F)c4)cn(c13)CCO2 falls below 50 nM? Thanks.
Result: 0

Task: Consider CO[C@H]1CC[C@H](NC/C=C/C(=O)Nc2c(F)cc(C(=O)c3cn4c5c(cccc35)-c3c(C)cc5c(nc(C)n5C)c3OCCC4)cc2F)CC1 (single isomer, unassigned) [Example 15-1] . Does its IC50 lie strictly below 50 nM?
Result: 0

Task: Is 50 nM strictly greater than the compound's reported IC50? compound: CO[C@H]1CC[C@H](NC/C=C/C(=O)Nc2c(F)cc(C(=O)c3cn4c5c(cccc35)-c3c(C(F)(F)F)cc5c(nc(C)n5C)c3OCC4)cc2F)CC1 (single isomer, unassigned) [Example 12-1]
Result: 1

Task: Hello, is IC50 of the following compound strictly smaller than 50 nM? CO[C@H]1CC[C@H](NC/C=C/C(=O)Nc2c(F)cc(C(=O)c3cn4c5c(cccc35)-c3c(C)cc5c(nc(C)n5C)c3CCC4)cc2F)CC1
Result: 0

Task: Please indicate whether the reported IC50 of CO[C@H]1CC[C@H](NC/C=C/C(=O)Nc2c(F)cc(C(=O)c3cn4c5c(cccc35)-c3c(Cl)cccc3OCC4)cc2F)CC1 (single isomer, unassigned) [Example 1-1] is strictly below 50 nM.
Result: 0

Task: Check if IC50 falls below 50 nM for CO[C@H]1CC[C@H](NC/C=C/C(=O)Nc2c(F)cc(C(=O)c3cn4c5c(cccc35)-c3c(C)cc5c(nc(C)n5C)c3O[C@H](C)C4)cc2F)CC1 .
Result: 0

Task: In plain terms, does Cc1cc2c(nc(C)n2C)c2c1-c1cccc3c(C(=O)c4cc(F)c(NC(=O)/C=C/CNC(C)(C)C)c(F)c4)cn(c13)CCO2 come in under 50 nM for IC50?
Result: 1

Task: API: query returns whether the compound falls strictly under 50 nM in IC50. Query: CO[C@H]1CC[C@H](NC/C=C/C(=O)Nc2c(F)cc(C(=O)c3cn4c5c(cccc35)-c3c(cc(N5CCCC5=O)cc3C(F)(F)F)OCC4)cc2F)CC1 (single isomer, unassigned) [Example 5-1]
Result: 0
